pIC50 reference
System: HT29 cells
PROCEDURE_SUMMARY: MTS cell viability assay HT29
Type: cell-based
REPORTED_CONDITIONS: Homo sapiens, HT-29, 48 h, cell line moderately expressing COX-2
pIC50: −log10 of the molar value.
METRIC_NAME: pIC50

> print(dat)
                                   compound  qualifier  number
1  NNC(=O)CSc1nc2ccccc2c(=O)n1NC(=O)Cc1ccccc1 [13b]          <    3.82
2  CC(C)Cc1ccc(C(C)C(=O)NN2C(=O)c3ccccc3N(C)C2c2ccc([N+](=O)[O-])cc2)cc1 (stereo not drawn)          =    4.87
3  CN1c2ccccc2C(=O)N(NC(=O)Cc2c[nH]c3ccccc23)C1c1ccc([N+](=O)[O-])cc1 (stereo not drawn)          =    4.18
4  Cc1ccc(-c2cc(C(F)(F)F)nn2-c2ccc(S(N)(=O)=O)cc2)cc1 [Celecoxib, reference compound]          =    5.24
5  O=C(CSc1nc2ccccc2c(=O)n1NC(=O)Cc1ccccc1)NNC(=O)c1ccccc1 [14c]          <    3.82
6  CN1c2ccccc2C(=O)N(NC(=O)Cc2c[nH]c3ccccc23)C1c1ccc(Cl)cc1 (stereo not drawn)          =    4.81
